Molecular target: KRas G12D/Q61H double mutant (Homo sapiens (Human), UniProt P01116, G12D/Q61H)
Sequence (P01116-2 other isoform, or with tags, fused parts or gaps G12D/Q61H): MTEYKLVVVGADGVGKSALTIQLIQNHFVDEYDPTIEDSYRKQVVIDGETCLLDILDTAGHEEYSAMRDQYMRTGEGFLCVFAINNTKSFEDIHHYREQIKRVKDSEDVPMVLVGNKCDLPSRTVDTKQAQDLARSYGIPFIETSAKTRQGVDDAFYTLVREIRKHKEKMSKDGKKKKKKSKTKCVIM
Experiment: Ras GTP binding domain inhibition assay (labeled GTP)
Conditions: 20 μM; read-out: KRas G12D Q61H % Inh.
parameter: inhibition at 20 µM

molecule	reportedValue
O=C(Cn1c(=O)[nH]c2ccccc21)Nc1nnc(-c2ccccn2)[nH]1 [drawing 2536]	51 to 75%
O=C(Nc1nc(-c2ccccn2)cs1)c1ccc(F)cc1 [drawing 2579]	51 to 75%
CN(CC(=O)Nc1nnc(-c2ccccn2)[nH]1)S(C)(=O)=O [drawing 2496]	51 to 75%
COCCCn1ccc(Nc2cc(C)nc(-c3ccccn3)n2)n1 [drawing 2606]	51 to 75%
CCc1ccccc1OCC(=O)Nc1nnc(-c2ccccn2)[nH]1 [drawing 2530]	51 to 75%
CCCCSc1nc(-c2cccs2)c(C(=O)C(F)(F)F)cc1C#N [drawing 2618]	51 to 75%
Cc1c(C(=O)N(C)C)sc2[nH]c(-c3ccccn3)nc(=O)c12 [drawing 2590]	25 to 50%
Cc1nc(-c2ccccn2)nc(O)c1CCC(=O)Nc1cccc(OCC(=O)N2CCCC2)c1 [drawing 2601]	25 to 50%
Cc1cccc(C(=O)Nc2nnc(-c3ccccn3)[nH]2)n1 [drawing 2524]	51 to 75%
